B1: HDV Ribozyme (parent)
chain: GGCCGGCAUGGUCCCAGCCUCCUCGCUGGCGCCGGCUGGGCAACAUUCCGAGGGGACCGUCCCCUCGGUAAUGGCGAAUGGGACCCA

variants of: B1; experiment: self-cleavage, relative activity (ratio to wild type); higher = more cleavage; co-transcriptional
measured.parameter: self-cleavage

# count of solved cases: 8
variant_annotation="G74C C86A" measured_parameter=self-cleavage observed_measurement=0.201
variant_annotation="C14G U23C" measured_parameter=self-cleavage observed_measurement=0.712
variant_annotation="C18U G39A" measured_parameter=self-cleavage observed_measurement=0.0302
variant_annotation="U46C A87U" measured_parameter=self-cleavage observed_measurement=0.689
variant_annotation="A70U G73U" measured_parameter=self-cleavage observed_measurement=0.169
variant_annotation="A8C G80U" measured_parameter=self-cleavage observed_measurement=0.07
variant_annotation="G25A G35U" measured_parameter=self-cleavage observed_measurement=0.135
variant_annotation="U23C G74A" measured_parameter=self-cleavage observed_measurement=0.217

Next:
For the variant shown here, A78U C86U , give the reported self-cleavage.
0.309

Cited source for all entries: the RNAGym collection of RNA variant scans (doi:10.7554/elife.80360)
